Below: a set of entries, each annotated with reported IC50.
molecular target: Phosphatidylinositol 4,5-bisphosphate 3-kinase catalytic subunit beta isoform (Homo sapiens, UniProt P42338); experiment: Inhibition of PI3Kbeta (unknown origin) using biotin-PIP3 as substrate preincubated for 15 mins followed by substrate addition and measured after 60 mins by fluorescence polarization assay
Sequence (P42338 whole entry, canonical isoform): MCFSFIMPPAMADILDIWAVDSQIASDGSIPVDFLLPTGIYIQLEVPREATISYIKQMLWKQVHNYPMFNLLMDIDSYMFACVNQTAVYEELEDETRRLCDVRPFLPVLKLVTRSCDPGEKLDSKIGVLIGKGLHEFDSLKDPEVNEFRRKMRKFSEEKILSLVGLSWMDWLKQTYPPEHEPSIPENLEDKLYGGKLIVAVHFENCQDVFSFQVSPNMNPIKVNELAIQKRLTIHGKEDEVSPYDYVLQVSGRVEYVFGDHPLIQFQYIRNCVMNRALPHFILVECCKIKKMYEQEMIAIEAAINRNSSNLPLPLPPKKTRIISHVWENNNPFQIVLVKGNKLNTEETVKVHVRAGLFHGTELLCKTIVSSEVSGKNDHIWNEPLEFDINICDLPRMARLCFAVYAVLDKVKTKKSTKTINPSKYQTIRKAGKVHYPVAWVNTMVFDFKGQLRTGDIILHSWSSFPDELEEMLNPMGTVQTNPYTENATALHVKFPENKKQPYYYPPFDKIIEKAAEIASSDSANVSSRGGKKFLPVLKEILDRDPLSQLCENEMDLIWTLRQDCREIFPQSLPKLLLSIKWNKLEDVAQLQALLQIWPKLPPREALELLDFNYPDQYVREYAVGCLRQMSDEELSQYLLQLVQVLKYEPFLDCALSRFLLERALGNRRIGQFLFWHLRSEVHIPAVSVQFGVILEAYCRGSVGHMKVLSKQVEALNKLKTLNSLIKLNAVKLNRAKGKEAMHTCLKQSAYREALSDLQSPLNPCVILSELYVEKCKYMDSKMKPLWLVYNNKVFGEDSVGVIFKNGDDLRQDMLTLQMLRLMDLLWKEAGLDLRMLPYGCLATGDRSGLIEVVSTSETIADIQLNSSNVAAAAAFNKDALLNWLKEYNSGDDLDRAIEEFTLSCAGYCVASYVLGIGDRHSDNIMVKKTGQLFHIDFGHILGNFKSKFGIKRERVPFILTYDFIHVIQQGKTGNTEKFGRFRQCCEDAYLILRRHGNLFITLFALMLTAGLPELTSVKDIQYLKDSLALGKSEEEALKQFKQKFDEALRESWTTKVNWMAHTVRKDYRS

- Compound: "CS(=O)(=O)NC1CCN(Cc2cc3nc(-c4cnc(N)nc4)nc(N4CCOCC4)c3s2)CC1"
  IC50, nM: 398
- Compound: "CS(=O)(=O)NC1CCCN(Cc2cc3nc(-c4cccc5[nH]ccc45)nc(N4CCOCC4)c3s2)C1 (racemic)"
  IC50, nM: 1260
- Compound: "CN(C1CCN(Cc2cc3nc(-c4cccc5[nH]ccc45)nc(N4CCOCC4)c3s2)CC1)S(C)(=O)=O"
  IC50, nM: 1260
- Compound: "COCC(=O)N(C)C1CCCN(Cc2cc3nc(-c4cccc5[nH]ncc45)nc(N4CCOCC4)c3s2)C1 (racemic)"
  IC50, nM: 6310
- Compound: "COCC(=O)NC1CCN(Cc2cc3nc(-c4cnc(N)nc4)nc(N4CCOCC4)c3s2)C1 (racemic)"
  IC50, nM: 501

---

Recorded logD values for a group of compounds are listed next.
test: Lipophilicity, logD of compound at pH 7.4 by HPLC-MS analysis; conditions: buffer
Parameter measured: logD

- Compound: "COCC(=O)NC1CCN(Cc2cc3nc(-c4cccc5[nH]ccc45)nc(N4CCOCC4)c3s2)C1 (racemic)"
  Parameter measured: "logD"
  Meas value: 4.1
- Compound: "CNC(=O)NC1CCN(Cc2cc3nc(-c4cccc5[nH]ncc45)nc(N4CCOCC4)c3s2)C1 (racemic)"
  Parameter measured: "logD"
  Meas value: 2.9
- Compound: "CC(=O)NC1CCN(Cc2cc3nc(-c4cccc5[nH]ncc45)nc(N4CCOCC4)c3s2)CC1"
  Parameter measured: "logD"
  Meas value: 3.2

---

assay: Lipophilicity, logD of compound at pH 7.4 by HPLC-MS analysis; conditions: buffer

- Molecule: "COCC(=O)NC1CCCN(Cc2cc3nc(-c4cccc5[nH]ccc45)nc(N4CCOCC4)c3s2)C1 (racemic)"
  logD: 5
- Molecule: "CC(=O)N(C)C1CCCN(Cc2cc3nc(-c4cccc5[nH]ncc45)nc(N4CCOCC4)c3s2)C1 (racemic)"
  logD: 4.5
- Molecule: "CC(=O)NC1CCCN(Cc2cc3nc(-c4cccc5[nH]ncc45)nc(N4CCOCC4)c3s2)C1 (racemic)"
  logD: 4

---

target: Phosphatidylinositol 4,5-bisphosphate 3-kinase catalytic subunit delta isoform (Homo sapiens, UniProt O00329)
Sequence (O00329 whole entry, canonical isoform): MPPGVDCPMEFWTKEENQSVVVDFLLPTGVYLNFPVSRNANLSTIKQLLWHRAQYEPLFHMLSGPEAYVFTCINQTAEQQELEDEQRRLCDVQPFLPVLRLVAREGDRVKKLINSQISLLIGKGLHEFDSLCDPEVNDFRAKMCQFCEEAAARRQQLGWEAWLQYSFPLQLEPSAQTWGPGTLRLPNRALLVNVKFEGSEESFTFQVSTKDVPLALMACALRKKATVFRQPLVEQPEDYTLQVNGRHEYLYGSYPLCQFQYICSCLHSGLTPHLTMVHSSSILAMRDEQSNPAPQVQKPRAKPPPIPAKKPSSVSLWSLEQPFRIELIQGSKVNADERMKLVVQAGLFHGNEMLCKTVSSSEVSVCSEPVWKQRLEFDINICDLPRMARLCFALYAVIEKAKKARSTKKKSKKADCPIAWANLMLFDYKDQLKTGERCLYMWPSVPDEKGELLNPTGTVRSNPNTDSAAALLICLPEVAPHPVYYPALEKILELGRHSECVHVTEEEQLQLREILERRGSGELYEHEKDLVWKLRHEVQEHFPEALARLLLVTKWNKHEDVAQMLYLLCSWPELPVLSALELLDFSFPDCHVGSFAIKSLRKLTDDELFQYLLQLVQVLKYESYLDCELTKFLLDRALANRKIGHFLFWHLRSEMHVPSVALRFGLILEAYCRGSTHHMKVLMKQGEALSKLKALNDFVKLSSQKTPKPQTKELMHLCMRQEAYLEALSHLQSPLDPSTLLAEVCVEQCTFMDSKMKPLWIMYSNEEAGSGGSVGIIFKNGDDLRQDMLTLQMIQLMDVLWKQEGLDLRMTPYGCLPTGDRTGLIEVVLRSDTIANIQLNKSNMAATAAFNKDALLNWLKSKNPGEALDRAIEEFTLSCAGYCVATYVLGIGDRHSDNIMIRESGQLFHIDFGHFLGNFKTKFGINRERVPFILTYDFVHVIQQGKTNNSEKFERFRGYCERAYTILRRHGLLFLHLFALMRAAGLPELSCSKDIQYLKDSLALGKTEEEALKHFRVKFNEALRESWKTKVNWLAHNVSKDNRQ
pIC50: −log10 of the molar value.

- Compound: "CS(=O)(=O)NC1CCCN(Cc2cc3nc(-c4cccc5[nH]ccc45)nc(N4CCOCC4)c3s2)C1 (racemic)"
  pIC50: 7.60
- Compound: "CC(=O)NC1CCN(Cc2cc3nc(-c4cnc(N)nc4)nc(N4CCOCC4)c3s2)CC1"
  pIC50: 7.00
- Compound: "CN(C1CCN(Cc2cc3nc(-c4cccc5[nH]ncc45)nc(N4CCOCC4)c3s2)CC1)S(C)(=O)=O"
  pIC50: 7.40
- Compound: "CS(=O)(=O)NC1CCCN(Cc2cc3nc(-c4cnc(N)nc4)nc(N4CCOCC4)c3s2)C1 (racemic)"
  pIC50: 7.80
- Compound: "COCC(=O)NC1CCCN(Cc2cc3nc(-c4cccc5[nH]ccc45)nc(N4CCOCC4)c3s2)C1 (racemic)"
  pIC50: 7.10
- Compound: "CC(=O)N(C)[C@@H]1CCN(Cc2cc3nc(-c4cnc(N)nc4)nc(N4CCOCC4)c3s2)C1"
  pIC50: 8.10
- Compound: "COCC(=O)NC1CCN(Cc2cc3nc(-c4cnc(N)nc4)nc(N4CCOCC4)c3s2)CC1"
  pIC50: 7.40
- Compound: "CNC(=O)NC1CCN(Cc2cc3nc(-c4cccc5[nH]ccc45)nc(N4CCOCC4)c3s2)C1 (racemic)"
  pIC50: 6.90
- Compound: "CC(=O)NC1CCN(Cc2cc3nc(-c4cccc5[nH]ncc45)nc(N4CCOCC4)c3s2)CC1"
  pIC50: 6.70
- Compound: "CC(=O)N(C)C1CCCN(Cc2cc3nc(-c4cnc(N)nc4)nc(N4CCOCC4)c3s2)C1 (racemic)"
  pIC50: 7.80
- Compound: "CNC(=O)NC1CCCN(Cc2cc3nc(-c4cccc5[nH]ncc45)nc(N4CCOCC4)c3s2)C1 (racemic)"
  pIC50: 7.00
- Compound: "CC(=O)NC1CCCN(Cc2cc3nc(-c4cnc(N)nc4)nc(N4CCOCC4)c3s2)C1 (racemic)"
  pIC50: 7.10
- Compound: "CNC(=O)NC1CCN(Cc2cc3nc(-c4cnc(N)nc4)nc(N4CCOCC4)c3s2)C1 (racemic)"
  pIC50: 6.80
- Compound: "COCC(=O)N(C)C1CCCN(Cc2cc3nc(-c4cccc5[nH]ncc45)nc(N4CCOCC4)c3s2)C1 (racemic)"
  pIC50: 6.90
